Measured EC50, listed per entry for reference.
Target: TLR2 (Mus musculus, UniProt Q9QUN7)
Construct: endogenous in cells
Sequence (Q9QUN7 25-784): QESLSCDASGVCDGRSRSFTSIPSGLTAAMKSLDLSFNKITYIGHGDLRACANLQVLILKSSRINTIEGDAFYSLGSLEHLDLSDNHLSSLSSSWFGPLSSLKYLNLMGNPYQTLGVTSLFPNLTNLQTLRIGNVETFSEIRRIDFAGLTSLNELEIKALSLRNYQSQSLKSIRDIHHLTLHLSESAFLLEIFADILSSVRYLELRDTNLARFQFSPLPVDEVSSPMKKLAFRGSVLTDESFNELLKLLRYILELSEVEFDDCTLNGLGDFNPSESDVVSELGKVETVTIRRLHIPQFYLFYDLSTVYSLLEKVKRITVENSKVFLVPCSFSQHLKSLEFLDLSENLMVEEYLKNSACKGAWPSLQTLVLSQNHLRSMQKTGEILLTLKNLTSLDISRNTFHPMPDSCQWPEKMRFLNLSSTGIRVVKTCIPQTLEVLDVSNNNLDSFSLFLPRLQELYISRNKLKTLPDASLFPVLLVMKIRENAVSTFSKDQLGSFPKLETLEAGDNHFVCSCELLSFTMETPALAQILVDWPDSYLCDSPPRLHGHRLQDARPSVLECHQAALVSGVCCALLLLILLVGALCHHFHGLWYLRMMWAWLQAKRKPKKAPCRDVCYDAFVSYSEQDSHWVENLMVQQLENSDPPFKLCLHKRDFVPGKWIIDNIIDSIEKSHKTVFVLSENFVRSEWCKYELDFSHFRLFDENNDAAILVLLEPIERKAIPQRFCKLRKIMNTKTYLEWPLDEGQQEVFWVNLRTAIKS
Experiment: TLR2 functional assay, cytokine release from RAW 264.7 mouse macrophage cell line
Settings: average of all runs
Experimental: Cells of the immune system respond to TLR agonists in part by secreting cytokines. Functional assays for TLR2 agonists measure cytokine release from purified immune cells or immortalized cell lines derived from immune cells. Cytokine release is measured by standard ELISA approaches or multiplexed analysis using the Meso Scale Discovery (MSD) platform. […]

* CCCCCCCNC(=O)N[C@@H](CNC(=O)c1ccc(C(=O)N2C[C@@H](C(=O)N[C@H]3C[C@@H]3c3ccccc3)[C@H](C(=O)N[C@H]3C[C@@H]3c3ccccc3)C2)cc1)C(=O)NCCCCCC [Compound 181] | > 1000 nM
* CCCCCCCCCCCNC(=O)N[C@H]1CN(C(c2ccc(C(=O)N3C[C@@H](C(=O)N[C@H]4C[C@@H]4c4ccccc4)[C@H](C(=O)N[C@H]4C[C@@H]4c4ccccc4)C3)cc2)C(F)(F)F)C[C@@H]1OC (single isomer, unassigned) [Compound 231] | 51 to 350 nM
* CCCCCCCNC(=O)N[C@@H](Cn1cc(-c2ccc(C(=O)N3C[C@@H](C(=O)N[C@H]4C[C@@H]4c4ccccc4)[C@H](C(=O)N[C@H]4C[C@@H]4c4ccccc4)C3)cc2)nn1)C(=O)NCCCCCC [Compound 220] | 0.1 to 50 nM

Field request: EC50 | item: CO[C@H]1CN(C(=O)c2ccc(C(=O)N3C[C@@H](C(=O)N[C@H]4C[C@@H]4c4ccccc4)[C@H](C(=O)N[C@H]4C[C@@H]4c4ccccc4)C3)cc2)C[C@@H]1NC(=O)N[C@H]1C[C@@H]1c1ccccc1 [Compound 224]
> 1000 nM

----------
Molecular target: TLR2 (Mus musculus, UniProt Q9QUN7)
Construct: endogenous in cells
Assay: TLR2 functional assay, cytokine release from RAW 264.7 mouse macrophage cell line
Conditions: average of all runs
Protocol: Cells of the immune system respond to TLR agonists in part by secreting cytokines. Functional assays for TLR2 agonists measure cytokine release from purified immune cells or immortalized cell lines derived from immune cells. Cytokine release is measured by standard ELISA approaches or multiplexed analysis using the Meso Scale Discovery (MSD) platform. […]
pEC50: −log10 of the molar value.
Measured pEC50, listed per entry for reference.

Example entries begin here.
• CCCCCCCCCCCCCNC(=O)N[C@@H](CNC(=O)c1ccc(C(=O)N2C[C@@H](C(=O)N[C@H]3C[C@@H]3c3ccccc3)[C@H](C(=O)N[C@H]3C[C@@H]3c3ccccc3)C2)cc1)COC [Compound 198] = < 6.00
• CCCCCCNC(=O)[C@H](CNC(=O)c1ccc(C(=O)N2C[C@@H](C(=O)N[C@H]3C[C@@H]3c3ccccc3)[C@H](C(=O)N[C@H]3C[C@@H]3c3ccccc3)C2)cc1)NC(=O)Cc1ccc(F)cc1 [Compound 138] = < 6.00
• CCCCCCCCNC(=O)[C@H](CNC(=O)c1ccc(C(=O)N2C[C@@H](C(=O)N[C@H]3C[C@@H]3c3ccccc3)[C@H](C(=O)N[C@H]3C[C@@H]3c3ccccc3)C2)cc1)NC(=O)CCCCCCCC [Compound 197] = 6.00 to 6.45

Field request: pEC50 | item: CCCCCCCCCCCNC(=O)N[C@H]1CN(C(=O)c2ccc(C(=O)N3C[C@@H](C(=O)N[C@H]4C[C@@H]4c4ccccc4)[C@H](C(=O)N[C@H]4C[C@@H]4c4ccccc4)C3)cc2)C[C@@H]1OC [Compound 199]
< 6.00

Field request: pEC50 | item: CCCCCCCCCCCCNC(=O)N[C@H]1CN(C(=O)c2ccc(C(=O)N3C[C@@H](C(=O)N[C@H]4C[C@@H]4c4ccccc4)[C@H](C(=O)N[C@H]4C[C@@H]4c4ccccc4)C3)cc2)C[C@@H]1OC [Compound 188]
6.00 to 6.45

----------
molecular target: TLR2 (Homo sapiens, UniProt O60603); assay: TLR2 agonist screening assay, HEK-Blue TLR2 reporter cell line (NF-kB-driven SEAP, absorbance at 600 nm); format: cell-based; parameters: host or cells: HEK-293 (HEK-Blue TLR2 reporter cell line); settings: HEK-Blue TLR2 reporter cells, agonist mode; average of all runs (Table 4)
Sequence (O60603 21-784): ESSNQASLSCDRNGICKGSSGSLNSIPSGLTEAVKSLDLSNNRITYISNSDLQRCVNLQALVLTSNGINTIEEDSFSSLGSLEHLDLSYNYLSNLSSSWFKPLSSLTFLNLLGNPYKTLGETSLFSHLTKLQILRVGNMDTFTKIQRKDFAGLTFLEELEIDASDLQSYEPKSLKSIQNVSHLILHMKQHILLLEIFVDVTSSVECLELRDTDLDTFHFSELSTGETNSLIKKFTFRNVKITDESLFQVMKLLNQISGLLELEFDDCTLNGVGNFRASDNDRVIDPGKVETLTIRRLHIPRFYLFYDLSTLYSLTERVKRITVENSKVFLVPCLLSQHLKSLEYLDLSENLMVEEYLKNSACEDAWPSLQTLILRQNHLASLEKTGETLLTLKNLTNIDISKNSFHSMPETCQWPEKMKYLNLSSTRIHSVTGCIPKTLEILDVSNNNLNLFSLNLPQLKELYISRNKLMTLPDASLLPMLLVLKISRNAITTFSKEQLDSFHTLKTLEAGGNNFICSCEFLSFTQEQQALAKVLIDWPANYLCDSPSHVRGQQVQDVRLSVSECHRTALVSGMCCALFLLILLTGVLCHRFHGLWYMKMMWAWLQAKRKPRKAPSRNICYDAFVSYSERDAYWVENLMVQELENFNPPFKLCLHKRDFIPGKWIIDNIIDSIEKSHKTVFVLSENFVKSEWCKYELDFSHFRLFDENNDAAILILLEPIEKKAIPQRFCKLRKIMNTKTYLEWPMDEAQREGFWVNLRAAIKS
assay.readout: EC50

• CO[C@H]1CN(C(=O)c2ccc(C(=O)N3C[C@@H](C(=O)N[C@H]4C[C@@H]4c4ccccc4)[C@H](C(=O)N[C@H]4C[C@@H]4c4ccccc4)C3)cc2)C[C@@H]1NC(=O)NCc1ccc(F)cc1 [Compound 183] = 51 to 350 nM
• CCCCCCCCCCCCCCC(=O)NC1CCN(S(=O)(=O)c2cccc(C(=O)N3C[C@@H](C(=O)N[C@H]4C[C@@H]4c4ccccc4)[C@H](C(=O)N[C@H]4C[C@@H]4c4ccccc4)C3)c2)CC1 [Compound 194] = > 1000 nM

Field request: EC50 | item: CCCCCCCCCCCCCNC(=O)N[C@H]1CN(C(c2ccc(C(=O)N3C[C@@H](C(=O)N[C@H]4C[C@@H]4c4ccccc4)[C@H](C(=O)N[C@H]4C[C@@H]4c4ccccc4)C3)cc2)C(F)(F)F)C[C@@H]1OC (some centres unmarked) [Compound 189]
0.1 to 50 nM

Field request: EC50 | item: CCCCCCCCCCCCCCNC(=O)[C@@H]1CN(C(=O)c2ccc(C(=O)N3C[C@@H](C(=O)N[C@H]4C[C@@H]4c4ccccc4)[C@H](C(=O)N[C@H]4C[C@@H]4c4ccccc4)C3)cc2)CCN1C(C)=O [Compound 162]
> 1000 nM

Field request: EC50 | item: CCCCCCCCCC(=O)NC(Cn1cnc2ccc(C(=O)N3C[C@@H](C(=O)N[C@H]4C[C@@H]4c4ccccc4)[C@H](C(=O)N[C@H]4C[C@@H]4c4ccccc4)C3)cc2c1=O)C(=O)NCCCCCC (some centres unmarked) [Compound 248]
> 1000 nM

Field request: EC50 | item: CCCCCCCC(=O)N1CCCN(S(=O)(=O)c2cccc(C(=O)N3C[C@@H](C(=O)N[C@H]4C[C@@H]4c4ccccc4)[C@H](C(=O)N[C@H]4C[C@@H]4c4ccccc4)C3)c2)C[C@H]1C(=O)NCCCCCC (single isomer, unassigned) [Compound 200]
> 1000 nM

Field request: EC50 | item: CCCCCCCCCCCCCCNC(=O)C1COC(=O)N(Cc2ccc(C(=O)N3C[C@@H](C(=O)N[C@H]4C[C@@H]4c4ccccc4)[C@H](C(=O)N[C@H]4C[C@@H]4c4ccccc4)C3)cc2)C1 (some centres unmarked) [Compound 179]
> 1000 nM

Field request: EC50 | item: CCCCCCCC(=O)N1CCCN(C(=O)c2ccc(C(=O)N3C[C@@H](C(=O)N[C@H]4C[C@@H]4c4ccccc4)[C@H](C(=O)N[C@H]4C[C@@H]4c4ccccc4)C3)cc2)C[C@H]1C(=O)NCCCCCC (single isomer, unassigned) [Compound 145]
> 1000 nM

Field request: EC50 | item: CCCCCCCCCCCCCCNC(=O)[C@H]1CN(C(=O)c2ccc(C(=O)N3C[C@@H](C(=O)N[C@H]4C[C@@H]4c4ccccc4)[C@H](C(=O)N[C@H]4C[C@@H]4c4ccccc4)C3)cc2)C[C@H]1O (relative stereo) [Compound 104]
0.1 to 50 nM

Field request: EC50 | item: CCCCCCCC(=O)N1CCN(S(=O)(=O)c2ccc(C(=O)N3C[C@@H](C(=O)N[C@H]4C[C@@H]4c4ccccc4)[C@H](C(=O)N[C@H]4C[C@@H]4c4ccccc4)C3)cc2)C[C@@H]1C(=O)NCCCCCC [Compound 161]
> 1000 nM

----------
molecular target: TLR2 (Homo sapiens, UniProt O60603); test: TLR2 agonist screening assay, HEK-Blue TLR2 reporter cell line (NF-kB-driven SEAP, absorbance at 600 nm); type: cell-based; set-up: host or cells: HEK-293 (HEK-Blue TLR2 reporter cell line); settings: HEK-Blue TLR2 reporter cells, agonist mode; average of all runs (Table 3)
pEC50: −log10 of the molar value.
assay.readout: pEC50

• CCCCCCCCCCCCCCNC(=O)C1CN(C(=O)c2ccc(C(=O)N3C[C@@H](C(=O)N[C@H]4C[C@@H]4c4ccccc4)[C@H](C(=O)N[C@H]4C[C@@H]4c4ccccc4)C3)cc2)C1 = < 6.00
• CCCCCCCCN1CCN(C(=O)c2ccc(C(=O)N3C[C@@H](C(=O)N[C@H]4C[C@@H]4c4ccccc4)[C@H](C(=O)N[C@H]4C[C@@H]4c4ccccc4)C3)cc2)C[C@H]1C(=O)NCCCCCC = < 6.00

Lab note: next compound to report on.
TLR2 (Homo sapiens, UniProt O60603) / pEC50 / `CCCCCCCCCCCCCCC(=O)NC(C)(C)CNC(=O)c1ccc(C(=O)N2C[C@@H](C(=O)N[C@H]3C[C@@H]3c3ccccc3)[C@H](C(=O)N[C@H]3C[C@@H]3c3ccccc3)C2)cc1` : value?
< 6.00

Values were extracted from patent US11951094B2.
